readout: logP

structurestring=Clc1cccc(Br)c1Cl readout=logP value=4.61
structurestring=Clc1cccc(Cl)c1Br readout=logP value=4.17
structurestring=Clc1ccc(I)cc1 readout=logP value=4.12
structurestring=Nc1ccc([N+](=O)[O-])cc1Cl readout=logP value=2.14
structurestring=Nc1ccc(Cl)cc1[N+](=O)[O-] readout=logP value=2.56
structurestring=O=[N+]([O-])c1ccc(Cl)c([N+](=O)[O-])c1 readout=logP value=2.18
structurestring=Clc1cccc(I)c1Cl readout=logP value=4.93
structurestring=Fc1c(Cl)cccc1Cl readout=logP value=3.38

###

Test: method code SF-AS, from DOI: 10.2175/106143002x139965, PMID: 12150246
logP values by entry
readout: logP

structurestring=Fc1ccc(Cl)cc1Cl readout=logP value=3.38
structurestring=Nc1ccc(Cl)c(Cl)c1 readout=logP value=2.55
structurestring=Nc1ccc(F)cc1Cl readout=logP value=2.04
structurestring=O=[N+]([O-])c1cc(Cl)ccc1O readout=logP value=2.48
structurestring=Nc1cc([N+](=O)[O-])ccc1Cl readout=logP value=2.2
structurestring=N#Cc1ccc(Cl)cc1 readout=logP value=2.24
structurestring=Nc1c(Cl)cc([N+](=O)[O-])cc1Cl readout=logP value=2.84

The reported measurements were obtained from the SangsterLogP compilation.
